System: gene editing with dCas9
Test: Screen of 322 new SSAP proteins, gene editing activity with dCas9 (Table 5)
Assay type: cell-based
Details: normalized
quantity: dCas9 with SSAP activity (normalized)
Just the number.

- molecule: "SSAP_260: SEQ ID NO: 429; Clostridium cochlearium (protein, listed as Clostridium cochlearium) ATNESLKNQLATKKETGIGSAGNTIKSLINSPVIKKRFEEVLDKRAPQYMSSIVNLVNSDTNLKKCDQMSVIASCMVAATMDLPVDKNLGYAWIVPYGNKAQFQMGYKGYVQLALRTGQYKSINVIEVHEGELEEWNPLTEELKIDFSKKESDAVIGYAGYFELLNGFKKSTYWTKEQITKHKNKFSKSDFGWKKDFDAMAKKTVLRNMLSKWGILSIEMQNAYTADHGVIKNEIMETGEVKENVEYIEADFESYEGTSIEEGGSNE"
  dCas9 with SSAP activity (normalized): "−1.301"
- molecule: "SSAP_88: SEQ ID NO: 257; Raoultella planticola (protein, listed as Raoultella planticola) TKQPPIAKADLQKTQGTRVSSPKGNNDVISFINQPSMKEQLAAALPRHMTAERMIRIATTEIRKVPALASCDTMSFVSAIVQCSQLGLEPGGALGHAYLLPFGNKNEKSGKKNVQLIIGYRGMIDLARRSGQIASLSARVVREGDEFSYEFGLEEKLTHRPGENEDAPVTHVYAVARLKDGGTQFEVLTSKQIELVRSQSKAANSGPWVTHWEEMAKKTAIRRLFKYLPVSIEIQRAVSIDEKEALTIDPADTSVLTGEYSVINSESEE"
  dCas9 with SSAP activity (normalized): "−1.193"
- molecule: "SSAP_155: SEQ ID NO: 324; Staphylococcus nepalensis (protein, listed as Staphylococcus nepalensis) ATQNQFKNQLTQKKENNNQPQQKAVGPKQEISNLLDRMAPQIQKALPQHMSAERMARIAMTAVSSTPKLLECDPKSLIGALMQSSQIGLEPNTNLGQAYLIPYGKEVQLQVSYLGMIELANRSKQYKAIYAHEVYPEDYFEYQYGLQKDLIHKPADNPQSEPIGYYAVYHLLNGGYDFVYWSKAKIDDHARQFSKAVQKGWQSPWKTNFNAMAKKTVLKDLLKFAPKSIEMNNAVSSDSKAQQIDDDGNIIDVTDYSQVNDEPEQLQEGQ"
  dCas9 with SSAP activity (normalized): "−0.826"

For the next question, use this molecule.
Report dCas9 with SSAP activity (normalized) for SSAP_188: SEQ ID NO: 357; Propionibacterium freudenreichii (protein, listed as Propionibacterium freudenreichii) TQQMPIKAQGEPTKELQQKAAVDRFNATLHQMQNEIARALPKHMTGDRFVRIVLTEVRKNPTLALCDPLTMFGSLLTAAALGLEPGLNGECWLVPRKNHGTLEAQLQVGYRGVVKLFWQNPAATYLDTGYVCERDEFRFAKGLNPILEHTPAEGDRGKVVRYYAVAGLNTGARVFDVFTPAQIKTLRGGKVGSNGDIPDPEHWMERKTALLQVLKLMPKSTQLAAVPAADGRAHTISDAQQIFGGVDPTTGEVLDAEPVEDGAA please.
−0.867
